Measured pIC50, listed per entry.
Tested on: HCT116 parental cells
experiment summary: Proliferation assay (CellTiter-Glo, 10 days of treatment), HCT116 parental
Format: cell-based
condition: Homo sapiens, HCT-116, 240 h
pIC50: −log10 of the molar value.

smiles code | sign qualifier | pIC50
COc1ccc(-c2c(-c3ccc4c(=O)[nH]nc(CN)c4c3)cnn2C)c(C#N)c1 | = | 5.11
Cn1ncc(-c2ccc3c(=O)[nH]nc(CN)c3c2)c1-c1sc2ccccc2c1C#N | = | 5.30
Cn1ncc(-c2ccc3c(=O)[nH]nc(CN)c3c2)c1-c1ccc2ccccc2c1C#N | = | 5.72
Cc1cccc(-c2c(-c3ccc4c(=O)[nH]nc(CN)c4c3)cnn2C)c1 | = | 5.31
Cc1cc(-c2cnn(C)c2-c2cccc(OC3CC3)c2C#N)cc2c(CN)n[nH]c(=O)c12 | = | 5.21
CCc1cccc(-c2c(-c3cc(C)c4c(=O)[nH]nc(CN)c4c3)cnn2C)c1C#N | = | 5.08
Cn1ncc(-c2ccc3c(=O)[nH]nc(CN)c3c2)c1-c1ccc2c(F)cccc2c1C#N | = | 5.11
CCc1cccc(-c2c(-c3cc(Cl)c4c(=O)[nH]nc(CN)c4c3)cnn2C)c1C#N | < | 5.00

###

experimental system: PRMT5/MEP50 complex (Homo sapiens (Human), UniProt O14744)
Sequence (O14744 2-637): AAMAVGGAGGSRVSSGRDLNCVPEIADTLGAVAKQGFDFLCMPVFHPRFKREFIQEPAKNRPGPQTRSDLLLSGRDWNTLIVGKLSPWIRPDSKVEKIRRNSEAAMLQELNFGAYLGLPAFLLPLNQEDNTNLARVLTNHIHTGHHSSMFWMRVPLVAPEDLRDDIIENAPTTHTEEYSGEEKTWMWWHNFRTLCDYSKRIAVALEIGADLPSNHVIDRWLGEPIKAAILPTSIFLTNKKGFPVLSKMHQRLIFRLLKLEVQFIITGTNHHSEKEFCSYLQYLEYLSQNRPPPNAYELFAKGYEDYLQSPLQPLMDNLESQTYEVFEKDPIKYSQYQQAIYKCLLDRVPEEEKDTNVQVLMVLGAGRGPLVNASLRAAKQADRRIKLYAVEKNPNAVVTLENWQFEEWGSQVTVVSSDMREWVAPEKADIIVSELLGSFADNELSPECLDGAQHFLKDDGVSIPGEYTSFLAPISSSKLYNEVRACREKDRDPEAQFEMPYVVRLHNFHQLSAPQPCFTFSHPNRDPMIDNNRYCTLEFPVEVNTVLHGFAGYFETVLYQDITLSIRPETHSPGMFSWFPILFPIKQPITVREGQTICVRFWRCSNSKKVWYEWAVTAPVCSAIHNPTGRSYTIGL
Sequence (Q9BQA1 2-342 partner): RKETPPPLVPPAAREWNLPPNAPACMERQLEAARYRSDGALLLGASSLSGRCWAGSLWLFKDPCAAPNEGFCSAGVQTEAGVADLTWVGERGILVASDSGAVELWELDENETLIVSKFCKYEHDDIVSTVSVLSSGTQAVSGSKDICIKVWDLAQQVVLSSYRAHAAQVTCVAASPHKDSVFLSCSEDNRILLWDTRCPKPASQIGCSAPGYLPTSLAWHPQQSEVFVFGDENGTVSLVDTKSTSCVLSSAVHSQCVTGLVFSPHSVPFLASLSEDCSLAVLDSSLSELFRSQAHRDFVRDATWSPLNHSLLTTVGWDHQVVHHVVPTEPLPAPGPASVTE
experiment summary: PRMT5:MEP50 HotSpot Assay (full-length histone H2A substrate, plus and minus MTA)
Assay type: biochemical
condition: IC50 + 2 μM MTA, in the presence of 2 μM MTA
measured endpoint: IC50

smiles code | observed result
Cn1ncc(-c2ccc3c(=O)[nH]nc(CN)c3c2)c1-c1ccc(OC2CC2)c2cncn12 | 2310 nM
Cc1cc(C#N)c(-c2c(-c3ccc4c(=O)[nH]nc(CN)c4c3)cnn2C)cc1C | 1890 nM
Cn1ncc(-c2ccc3c(=O)[nH]nc(CN)c3c2)c1-c1cccc2c1COCC2 | 501 nM
CCc1ccc(-c2c(-c3ccc4c(=O)[nH]nc(CN)c4c3)cnn2C)c(C#N)c1 | 826 nM

###

Test system: HCT116 parental cells
experiment summary: Proliferation assay (CellTiter-Glo, 10 days of treatment), HCT116 parental
Type: cell-based
condition: Homo sapiens, HCT-116, 240 h
pIC50: −log10 of the molar value.
pIC50 values by entry

smiles code | sign qualifier | pIC50
Cc1cc(OC2CC2)c(C#N)c(-c2c(-c3ccc4c(=O)[nH]nc(CN)c4c3)cnn2C)c1F | = | 5.62
Cn1ncc(-c2ccc3c(=O)[nH]nc(CN)c3c2)c1-c1cc(Cl)c2ccccc2c1C#N | = | 6.00
Cn1ncc(-c2ccc3c(=O)[nH]nc(CN)c3c2)c1-c1cc2ccccc2c(OC2CC2)c1C#N | = | 5.51
Cn1ncc(-c2ccc3c(=O)[nH]nc(CN)c3c2)c1-c1cc(C#N)c2ccccc2c1F | = | 5.86
Cn1ncc(-c2ccc3c(=O)[nH]nc(CN)c3c2)c1-c1cc(C(F)(F)F)cc(OC2CC2)c1C#N | = | 5.33
Cc1cc(-c2cnn(C)c2-c2ccc3ccccc3c2C#N)cc2c(CN)n[nH]c(=O)c12 | = | 6.12
CN(c1ccccc1)c1cncc(-c2ccc3c(=O)[nH]nc(CN)c3c2)c1 | < | 5.00
Cn1ncc(-c2ccc3c(=O)[nH]nc(CN)c3c2)c1-c1ccc2cccnc2c1C#N | < | 5.00
